Listed compounds paired with reported viability decrease
experiment: growth inhibition of GSK3B-pretreated HCT116 cells – cell-based, CellTiter-Glo, 0.2 to 20 µM (AID 1117336); settings: HCT116 viability after GSK3B inhibitor, at 20 µM, hits give high values
Starred links: 1 amine or outer side, 2 acyl side, 3 side chain; linkers in the order of their positions; H or OH if unused. Positions of bridges follow the written chain, without caps; N, C: chain ends. Non-standard residues stand in square brackets, D forms with d. Residues, ends and D or L forms follow the SMILES beside them. ξ: configuration not given here. *: point of attachment. ΔAla(3-NHCONH2) = NC(=O)NC=C(N)C(=O)O; X1 = NC1=NCCC(C(N[*:1])C(=O)[*:2])N1; ξβ3hOrn = NCCCC(N)CC(=O)*; Dap = NC[CH](N)C(=O)O
experimentalEndpoint: viability decrease (%)

compound=O=C(c1cc(O)c(O)c(O)c1)c1ccc(O)c(O)c1O endpointunit=% endpointresult=98.2
compound=CC(=O)O[C@@H]1C(=O)O[C@@H]2[C@H]1OC(=O)[C@@H]2OC(C)=O endpointunit=% endpointresult=19.5
compound=COc1ccc2cc(Br)ccc2c1 endpointunit=% endpointresult=-1.1
compound="C[C@@H](O)[C@H]1C(=O)N2C(C(=O)[O-])=C(SC3Cn4cnc[n+]4C3)[C@H](C)[C@H]12 (some centres undefined)" endpointunit=% endpointresult=-16.5
compound=CCCC(=O)Nc1ccc(O)c(C(C)=O)c1 endpointunit=% endpointresult=-4.4
compound="CN1CC(O)c2cc(N=NC(N)=O)c(O)cc21 (centres undefined)" endpointunit=% endpointresult=2
compound=C[C@]12CCC(=O)C=C1CC[C@@H]1[C@@H]2[C@@H](O)C[C@@]2(C)[C@H]1CC[C@]2(O)C(=O)CO endpointunit=% endpointresult=-18.7
compound=OCCN1C[C@H](O)[C@@H](O)[C@H](O)[C@H]1CO endpointunit=% endpointresult=-1.6
compound="CC12C=CC(=O)C=C1CCC1C2C(O)CC2(C)C1CCC2(O)C(=O)COP(=O)(O)O (centres undefined)" endpointunit=% endpointresult=-38.5
compound=O=C(O)c1[nH]n(-c2ccc(S(=O)(=O)O)cc2)c(=O)c1N=Nc1ccc(S(=O)(=O)O)cc1 endpointunit=% endpointresult=-3.9
compound=c1ccc([C@H]2CN3CCSC3=N2)cc1 endpointunit=% endpointresult=-1.75
compound=Cn1cc(C(=O)[C@@H]2CCc3nc[nH]c3C2)c2ccccc21 endpointunit=% endpointresult=2.2
compound=Cc1ccc(S(=O)(=O)NC(=O)NC2CCCC2)cc1 endpointunit=% endpointresult=-1.25
compound=CC(C)=CCC/C(C)=C/CC/C(C)=C/C(=O)OCC(=O)[C@@]1(O)CC[C@H]2[C@@H]3CCC4=CC(=O)C=C[C@]4(C)[C@H]3[C@@H](O)C[C@@]21C endpointunit=% endpointresult=92.3
compound="NCCCC(N)CC(=O)NCC1NC(=O)C(CO)NC(=O)C(N)CNC(=O)C(C2CCN=C(N)N2)NC(=O)C(=CNC(N)=O)NC1=O (stereo not drawn) (H-[Dap]S[Dap](ξβ3hOrn)[ΔAla(3-NHCONH2)][X1]; lactam 1-C; configuration not given here)" endpointunit=% endpointresult=3.9
compound="CCCCC(C)(O)CC=C[C@H]1[C@H](O)CC(=O)[C@H]1CCCCCCC(=O)OC (some centres undefined)" endpointunit=% endpointresult=-0.5
compound=O=c1[nH]c(=O)n([C@H]2O[C@H](CO)[C@@H](O)[C@@H]2O)cc1/C=C\Br endpointunit=% endpointresult=-12.2
compound=CCCCCCCCCCCCCCCCCC(=O)[O][Al] endpointunit=% endpointresult=2.3
compound=CCCc1ccc(OCC(=O)N2CCN(C(=O)COc3ccc(CCC)cc3OC)CC2)c(OC)c1 endpointunit=% endpointresult=-50.5

---

test: glucagon-like peptide 1 release enhancers, primary assay, NCI-H716 cell line, NPC library (AID 1117341); conditions: NCI-H716 cells, at 10 µM, hits give high values; note: reference of the scale not given here
experimentalEndpoint: GLP1 secretion stimulation (%)

compound="CCN1C(=O)c2ccccc2C1Nc1ccc(OCCN2CCCCC2)cc1 (centres undefined)" endpointresult=7.7
compound=Nc1c(I)cc(I)c(C(=O)N(CCC(=O)O)c2ccccc2)c1I endpointresult=-5.3
compound="CC(C)NCC(O)c1ccc(O)c(O)c1 (centres undefined)" endpointresult=6.8
compound=OC1(c2ccccc2)CCNCC1 endpointresult=6.9

---

system: Aerobactin synthetase IucA (Klebsiella pneumoniae); test: IucA aerobactin synthetase inhibitors, biochemical, Tocris library, absorbance (AID 1345561); details: purified IucA enzyme assay, absorbance (OD) read-out; hits give low values;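 tested at 8 µM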;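 note: 100% = enzyme without compound and 0% = no enzyme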
experimentalEndpoint: remaining activity (%)

compound=COc1ccc2c(c1)c(CC(=O)O)c(C)n2C(=O)c1ccc(Cl)cc1 targetundertest="Aerobactin synthetase IucA (Klebsiella pneumoniae)" experimentalendpoint="remaining activity" endpointresult=120
compound=O=C1N=C(O)CN1/N=C/c1ccc(-c2ccc([N+](=O)[O-])cc2)o1 targetundertest="Aerobactin synthetase IucA (Klebsiella pneumoniae)" experimentalendpoint="remaining activity" endpointresult=110
compound=CCCCCCCCCCC[C@@H](C[C@@H]1OC(=O)[C@H]1CCCCCC)OC(=O)[C@H](CC(C)C)NC=O targetundertest="Aerobactin synthetase IucA (Klebsiella pneumoniae)" experimentalendpoint="remaining activity" endpointresult=84.7
compound=CCOC(=O)N1CCC(=C2c3ccc(Cl)cc3CCc3cccnc32)CC1 targetundertest="Aerobactin synthetase IucA (Klebsiella pneumoniae)" experimentalendpoint="remaining activity" endpointresult=99.4
compound=CN(C)CCCN1c2ccccc2CCc2ccc(Cl)cc21 targetundertest="Aerobactin synthetase IucA (Klebsiella pneumoniae)" experimentalendpoint="remaining activity" endpointresult=96.8
compound=COc1cc2ncn(-c3cc(OCc4ccccc4C(F)(F)F)c(C(N)=O)s3)c2cc1OC targetundertest="Aerobactin synthetase IucA (Klebsiella pneumoniae)" experimentalendpoint="remaining activity" endpointresult=94.3
compound=CCC1(c2ccccc2)C(=O)NCNC1=O targetundertest="Aerobactin synthetase IucA (Klebsiella pneumoniae)" experimentalendpoint="remaining activity" endpointresult=91.8
compound=COc1ccccc1N1CCN(CCCNc2cc(=O)n(C)c(=O)n2C)CC1 targetundertest="Aerobactin synthetase IucA (Klebsiella pneumoniae)" experimentalendpoint="remaining activity" endpointresult=103
compound="CCOC(=O)C1=C(C)NC(C)=C(C(=O)OC)C1c1cccc([N+](=O)[O-])c1 (configuration not stated)" targetundertest="Aerobactin synthetase IucA (Klebsiella pneumoniae)" experimentalendpoint="remaining activity" endpointresult=111
compound=COc1ccc(Cl)cc1C(=O)NCCc1ccc(S(=O)(=O)NC(=O)NC2CCCCC2)cc1 targetundertest="Aerobactin synthetase IucA (Klebsiella pneumoniae)" experimentalendpoint="remaining activity" endpointresult=104
compound=CC1(C)O[C@@H]2[C@@H](CO[C@@]3(COS(N)(=O)=O)OC(C)(C)O[C@@H]23)O1 targetundertest="Aerobactin synthetase IucA (Klebsiella pneumoniae)" experimentalendpoint="remaining activity" endpointresult=121
compound=CC(C)(C)NC[C@H](O)COc1nsnc1N1CCOCC1 targetundertest="Aerobactin synthetase IucA (Klebsiella pneumoniae)" experimentalendpoint="remaining activity" endpointresult=95.7
compound=OCCN(CCO)c1nc(N2CCCCC2)c2nc(N(CCO)CCO)nc(N3CCCCC3)c2n1 targetundertest="Aerobactin synthetase IucA (Klebsiella pneumoniae)" experimentalendpoint="remaining activity" endpointresult=98
compound=Fc1ccc(-c2nc3n(c2-c2ccncc2)CCS3)cc1 targetundertest="Aerobactin synthetase IucA (Klebsiella pneumoniae)" experimentalendpoint="remaining activity" endpointresult=117
compound="Cc1c(OCC(F)(F)F)ccnc1CS(=O)c1nc2ccccc2[nH]1 (configuration not stated)" targetundertest="Aerobactin synthetase IucA (Klebsiella pneumoniae)" experimentalendpoint="remaining activity" endpointresult=87.5
compound=Nc1c2c(nc3ccccc13)CCCC2 targetundertest="Aerobactin synthetase IucA (Klebsiella pneumoniae)" experimentalendpoint="remaining activity" endpointresult=109
compound="COCCOC(=O)C1=C(C)NC(C)=C(C(=O)OC(C)C)C1c1cccc([N+](=O)[O-])c1 (configuration not stated)" targetundertest="Aerobactin synthetase IucA (Klebsiella pneumoniae)" experimentalendpoint="remaining activity" endpointresult=102
compound=CC1=C(/C=C/C(C)=C/C=C/C(C)=C/C(=O)O)C(C)(C)CCC1 targetundertest="Aerobactin synthetase IucA (Klebsiella pneumoniae)" experimentalendpoint="remaining activity" endpointresult=104
compound="O=C1CCC(N2C(=O)c3ccccc3C2=O)C(=O)N1 (configuration not stated)" targetundertest="Aerobactin synthetase IucA (Klebsiella pneumoniae)" experimentalendpoint="remaining activity" endpointresult=108
compound=Cc1noc(NS(=O)(=O)c2ccc(N)cc2)c1C targetundertest="Aerobactin synthetase IucA (Klebsiella pneumoniae)" experimentalendpoint="remaining activity" endpointresult=91.4
compound=CNCCCC12CCC(c3ccccc31)c1ccccc12 targetundertest="Aerobactin synthetase IucA (Klebsiella pneumoniae)" experimentalendpoint="remaining activity" endpointresult=112
compound=CCOC(=O)[C@H](CCc1ccccc1)N[C@H]1CCc2ccccc2N(CC(=O)O)C1=O targetundertest="Aerobactin synthetase IucA (Klebsiella pneumoniae)" experimentalendpoint="remaining activity" endpointresult=104
